Record form. Attribute: Phage binding ELISA, Anti-CD28 Fab signal. Fill in for each entry.
# study.system: T1, Anti-CD28 Fab (SEQ ID NOs: 696, 697)
# T1 construct: Biotinylated and captured on neutravidin coated plates in the phage ELISA
# T1 sequence (VH, as listed by the source, chain 1 of 2): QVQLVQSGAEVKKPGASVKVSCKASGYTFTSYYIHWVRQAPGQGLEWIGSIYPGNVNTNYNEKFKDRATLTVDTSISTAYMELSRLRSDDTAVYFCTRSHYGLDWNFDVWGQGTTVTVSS
# T1 sequence (VL, as listed by the source, chain 2 of 2): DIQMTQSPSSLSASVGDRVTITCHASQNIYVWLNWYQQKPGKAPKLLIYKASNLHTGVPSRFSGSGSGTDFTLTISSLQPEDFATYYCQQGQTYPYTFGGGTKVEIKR
# assay.procedure: clonal phage ELISA; biotinylated anti-CD28 Fab on neutravidin plate, bound phage detected with anti-M13 HRP

Below are worked cases with known answers.
binder: YCEGHIPMYMLKCM [Phage-1192]
recorded.measurement: 1.06
--
binder: YCVGHLPEYMLECM [Phage-1188]
recorded.measurement: 1.08

Please go through the list and note Phage binding ELISA, Anti-CD28 Fab signal for each binder.
1. YCDGHTKEYMWKCL [Phage-1185]
2. YCEGHMGEYMLKCL [Phage-1184]

Result:
1.1
1.1
